pIC50 overview
- target entity: p38α kinase (Homo sapiens, UniProt Q16539)
- Sequence (Q16539 whole entry): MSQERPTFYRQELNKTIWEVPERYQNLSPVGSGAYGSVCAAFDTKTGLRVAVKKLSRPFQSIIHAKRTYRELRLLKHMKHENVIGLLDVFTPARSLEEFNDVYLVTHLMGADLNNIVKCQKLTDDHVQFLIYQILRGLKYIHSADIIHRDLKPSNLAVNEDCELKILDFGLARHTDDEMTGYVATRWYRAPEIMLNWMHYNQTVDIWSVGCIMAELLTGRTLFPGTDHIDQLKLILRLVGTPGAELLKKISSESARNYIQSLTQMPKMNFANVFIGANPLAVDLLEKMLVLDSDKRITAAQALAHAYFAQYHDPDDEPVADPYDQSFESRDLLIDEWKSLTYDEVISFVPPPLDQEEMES
pIC50: −log10 of the molar value.

Record Cc1ccc(C(=O)NC2CC2)cc1Nc1nc(-c2cccc(C#N)c2)c(C(=O)NCc2ccccc2)s1 . Reported pIC50: 7.00 to 7.30

----------
The reader will find IC50 measurements below, all made with UniProtKB Q16539.

>>> df
                                   molecule     target_entity  test_readout           val
0  Cc1ccc(C(=O)NC2CC2)cc1Nc1ncc(C(=O)NCc2ccccc2)s1 [Compound 26]  UniProtKB Q16539          IC50       < 50 nM
1  Cc1cccc(-c2nc(Nc3cc(C(=O)NC4CC4)ccc3C)sc2C(=O)NCc2ccccc2)c1 [Compound 28-6]  UniProtKB Q16539          IC50  50 to 100 nM

Now for the molecule whose IC50 we want.
Record CONC(=O)c1ccc(C)c(Nc2nnc(-c3ccccc3)[nH]2)c1 [Compound 1] . Reported IC50: < 50 nM

Just for reference, patent US7652044B2 is where these values come from.
